As a worked illustration, we turn to Kd data collected for TYRO3 (Homo sapiens, UniProt Q06418).

Below are worked cases with known answers.
INSERT INTO results (molecule, test_target, observation_type, meas_value) VALUES
  ('COc1cc2nccc(Oc3ccc(NC(=O)c4nn(-c5ccc(F)cc5Oc5ccccc5)cc4OCC4CC4)nc3)c2cc1OC', 'TYRO3 (Homo sapiens, UniProt Q06418)', 'Kd', '100 to 1000 nM'),
  ('CCOc1cn(-c2cncc(C)n2)nc1C(=O)Nc1ccc(Oc2ccnc3cc(OC)c(OC)cc23)cn1', 'TYRO3 (Homo sapiens, UniProt Q06418)', 'Kd', '≥ 1000 nM'),
  ('CCOc1cn(CC)nc1C(=O)Nc1ccc(Oc2ccnc3cc(OC)c(OC)cc23)cn1', 'TYRO3 (Homo sapiens, UniProt Q06418)', 'Kd', '< 100 nM'),
  ('CCOc1cn(-c2cnccc2C#N)nc1C(=O)Nc1ccc(Oc2ccnc3cc(OC)c(OC)cc23)cn1', 'TYRO3 (Homo sapiens, UniProt Q06418)', 'Kd', '< 100 nM'),
  ('CCOc1cn(C2CCCN(C(N)=O)C2)nc1C(=O)Nc1ccc(Oc2ccnc3cc(OC)c(OC)cc23)cc1F (stereo not shown)', 'TYRO3 (Homo sapiens, UniProt Q06418)', 'Kd', '100 to 1000 nM'),
  ('CCOc1cn(-c2ncc(N)nc2C)nc1C(=O)Nc1ccc(Oc2ccnc3cc(OC)c(OC)cc23)cn1', 'TYRO3 (Homo sapiens, UniProt Q06418)', 'Kd', '< 100 nM');

Please find the next molecule below.
Enquiry: Query Kd on TYRO3 (Homo sapiens, UniProt Q06418) for "CCOc1cn(-c2ccc(C)cc2F)nc1C(=O)Nc1ccc(Oc2ccnc3cc(OC)c(OC)cc23)cn1"
Sequence (Q06418 41-890): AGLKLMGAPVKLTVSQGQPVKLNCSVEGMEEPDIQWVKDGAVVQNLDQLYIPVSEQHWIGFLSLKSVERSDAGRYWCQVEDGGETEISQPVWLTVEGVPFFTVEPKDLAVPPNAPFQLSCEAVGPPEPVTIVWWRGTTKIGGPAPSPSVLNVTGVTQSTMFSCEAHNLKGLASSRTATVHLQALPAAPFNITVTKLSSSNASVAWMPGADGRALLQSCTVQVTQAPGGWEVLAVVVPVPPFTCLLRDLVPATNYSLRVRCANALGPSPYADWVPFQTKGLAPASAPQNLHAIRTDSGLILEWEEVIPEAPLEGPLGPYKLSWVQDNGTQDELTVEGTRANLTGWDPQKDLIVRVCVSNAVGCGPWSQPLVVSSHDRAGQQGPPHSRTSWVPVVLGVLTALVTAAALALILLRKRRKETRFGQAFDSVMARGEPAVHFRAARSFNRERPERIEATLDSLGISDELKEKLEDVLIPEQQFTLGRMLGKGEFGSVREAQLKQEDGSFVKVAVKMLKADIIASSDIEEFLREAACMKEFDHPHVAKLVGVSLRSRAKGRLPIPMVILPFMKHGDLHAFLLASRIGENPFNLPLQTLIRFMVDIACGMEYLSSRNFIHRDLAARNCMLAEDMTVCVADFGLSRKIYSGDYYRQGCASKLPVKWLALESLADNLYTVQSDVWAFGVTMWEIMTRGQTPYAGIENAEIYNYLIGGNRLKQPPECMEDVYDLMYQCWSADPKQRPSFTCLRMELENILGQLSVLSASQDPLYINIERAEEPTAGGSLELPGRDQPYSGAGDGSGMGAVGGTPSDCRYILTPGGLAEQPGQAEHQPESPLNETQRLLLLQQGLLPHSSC
Return: 100 to 1000 nM
